Reference source for all entries: patent US8853175B2

- Tested on: TNFα
- test.name: TNFα inhibition assay in PBMC (LPS-stimulated)
- Assay type: cell-based
- conditions: Homo sapiens; PBMC stimulated with LPS 1 ng/ml; TNFα by ELISA; read-out: IC50 for inhibiting TNFα
pIC50: −log10 of the molar value.
experimental.readout: pIC50

## Input If you can, please state the reported pIC50 value of CCOc1cc([C@@H](CS(C)(=O)=O)N2C(=O)c3cccc(NC(=O)CO)c3C2=O)ccc1OC .
## Output ~6.70
